Attribution: patent US20150337042A1

# measured_on: T1, wild type human EGFR on cells (A431, NHEK, SCC-15, H292) (human, UniProt P00533 25-1210)
# T1 construct: Endogenous receptor of human cell lines and keratinocytes said to express wild type EGFR; also called wild type EGFR; wtEGFR
# assay_summary: FACS binding to normal human epidermal keratinocytes (NHEK), AlexaFluor 488 secondary antibody
Each entry below carries its reported EC50 (read off the curve).

See these solved cases before continuing.
Antibody A (AbA) (antibody, human IgG1, kappa, V domains shown, IgG1) VH: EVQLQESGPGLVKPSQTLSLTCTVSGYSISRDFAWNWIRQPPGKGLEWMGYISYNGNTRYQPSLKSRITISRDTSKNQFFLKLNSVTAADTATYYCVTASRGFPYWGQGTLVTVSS VL: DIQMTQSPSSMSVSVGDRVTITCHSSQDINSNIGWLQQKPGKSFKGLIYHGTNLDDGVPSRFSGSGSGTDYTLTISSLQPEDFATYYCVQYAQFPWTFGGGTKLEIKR; ~50 nM
Antibody P (AbP) (antibody, V domains shown, Full length IgG1) VH: EVQLQESGPGLVKPSQTLSLTCTVSGYSISHDFAWNWIRQPPGKGLEWMGYISYSGNTRYQPSLKSRITISRDTSKNQFFLKLNSVTAADTATYYCVTASWGLPWWGQGTLVTVSS VL: DIQMTQSPSSMSVSVGDRVTITCHSSQDINMNVGWLQQKPGKSFKGLIYHGAILDDGVPSRFSGSGSGTDYTLTISSLQPEDFATYYCVQYAEFPWTFGGGTKLEIK; ~30 nM
Antibody M (AbM) (antibody, V domains shown, Full length IgG1) VH: EVQLQESGPGLVKPSQTLSLTCTVSGYSIGRDFAWNWIRQPPGKGLEWMGYISYNGNTRYQPSLKSRITISRDTSKNQFFLKLNSVTAADTATYYCVTASRGFPYWGQGTLVTVSS VL: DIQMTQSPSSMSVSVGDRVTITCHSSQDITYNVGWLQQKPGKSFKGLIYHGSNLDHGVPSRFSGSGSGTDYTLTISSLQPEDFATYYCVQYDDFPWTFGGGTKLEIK; ~40 nM

Continue with the next binder.
# query: EC50 (read off the curve) of entry Antibody K (AbK) (antibody, V domains shown, Full length IgG1) VH: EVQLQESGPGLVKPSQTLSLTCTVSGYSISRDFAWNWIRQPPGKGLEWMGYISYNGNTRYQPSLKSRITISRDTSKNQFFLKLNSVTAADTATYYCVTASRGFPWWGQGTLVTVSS VL: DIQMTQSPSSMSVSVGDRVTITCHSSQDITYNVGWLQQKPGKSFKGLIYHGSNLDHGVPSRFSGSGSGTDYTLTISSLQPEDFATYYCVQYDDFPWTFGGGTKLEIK
~40 nM
